Target: T1, EsCas13d, nuclease-dead (Eubacterium siraeum, UniProt B0MS50, R295A;H300A;R849A;H854A)
T1 sequence: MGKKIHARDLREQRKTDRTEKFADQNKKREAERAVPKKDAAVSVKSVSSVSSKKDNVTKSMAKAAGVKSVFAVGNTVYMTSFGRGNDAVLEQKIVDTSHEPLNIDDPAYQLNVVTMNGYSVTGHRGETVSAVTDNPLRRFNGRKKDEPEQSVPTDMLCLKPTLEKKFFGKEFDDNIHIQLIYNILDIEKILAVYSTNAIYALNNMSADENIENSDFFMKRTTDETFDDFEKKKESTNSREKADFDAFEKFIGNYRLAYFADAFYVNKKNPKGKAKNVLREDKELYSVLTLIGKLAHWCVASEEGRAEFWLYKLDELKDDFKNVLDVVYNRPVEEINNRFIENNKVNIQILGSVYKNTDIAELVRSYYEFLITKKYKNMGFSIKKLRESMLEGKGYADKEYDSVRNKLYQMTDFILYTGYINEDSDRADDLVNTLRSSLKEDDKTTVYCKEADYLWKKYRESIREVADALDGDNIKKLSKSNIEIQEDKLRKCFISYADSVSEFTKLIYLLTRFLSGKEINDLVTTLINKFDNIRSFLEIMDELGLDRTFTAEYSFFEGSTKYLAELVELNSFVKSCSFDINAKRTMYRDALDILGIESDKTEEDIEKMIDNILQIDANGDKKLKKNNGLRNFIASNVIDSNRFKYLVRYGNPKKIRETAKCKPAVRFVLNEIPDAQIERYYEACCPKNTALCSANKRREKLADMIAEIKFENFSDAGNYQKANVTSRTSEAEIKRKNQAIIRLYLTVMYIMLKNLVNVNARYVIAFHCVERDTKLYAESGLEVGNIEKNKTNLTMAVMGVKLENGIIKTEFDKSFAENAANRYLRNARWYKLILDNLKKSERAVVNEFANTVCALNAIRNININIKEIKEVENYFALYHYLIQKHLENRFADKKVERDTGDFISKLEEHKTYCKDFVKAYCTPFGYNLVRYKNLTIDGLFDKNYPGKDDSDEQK
Assay: crRNA (strand 1, pre-loaded); Mg2+; 40 mM Tris-HCl pH 7.5, 150 mM NaCl, 6 mM MgCl2, 1 mM DTT, 0.1% Tween-20, 0.2 mg/ml BSA; 25 C; 10 min per concentration, then washed
Settings: tags: His6-TwinStrep-SUMO cleaved; N-terminal SNAP kept (SNAP-Surface 488); label: 3' end held by stalled T7 RNA polymerase
measurement_name: Kd

target 1 MT 5'PFS GGA 3'PFS AAC (mixed) RNA 1: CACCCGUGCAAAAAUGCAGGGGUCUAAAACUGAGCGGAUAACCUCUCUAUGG RNA 2: GGGAAUGGAUCCACAUCUACGAAUUCGGACCAUAGAGAGGUUAUCCGCUCAAACAGAUCGGAAGAGCACACGU | 24.5 nM
target 3 insG 3' of 6,insA 3' of 3 (mixed) RNA 1: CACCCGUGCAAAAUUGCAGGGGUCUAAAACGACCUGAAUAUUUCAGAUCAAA RNA 2: GGGAAUGGAUCCACAUCUACGAAUUCGUUUUUGAUCUGAAAUAUUCGAGGAUCUGCAGAUCGGAAGAGCACACGU | 10.4 nM

Please give Kd for each item listed below.
1. target 1 A1C (mixed) RNA 1: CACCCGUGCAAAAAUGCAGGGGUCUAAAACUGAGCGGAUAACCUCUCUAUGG RNA 2: GGGAAUGGAUCCACAUCUACGAAUUCGUACCAUAGAGAGGUUAUCCGCUCCCCGAGAUCGGAAGAGCACACGU
2. target 1 MT 5'PFS AAA 3'PFS AUU (mixed) RNA 1: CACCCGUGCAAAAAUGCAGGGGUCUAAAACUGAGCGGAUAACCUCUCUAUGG RNA 2: GGGAAUGGAUCCACAUCUACGAAUUCAAACCAUAGAGAGGUUAUCCGCUCAAUUAGAUCGGAAGAGCACACGU
3. target 2 MT 5'PFS GGC 3'PFS CGU (mixed) RNA 1: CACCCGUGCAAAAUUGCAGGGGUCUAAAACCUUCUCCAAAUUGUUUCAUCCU RNA 2: GGGAAUGGAUCCACAUCUACGAAUUCGGCAGGAUGAAACAAUUUGGAGAAGCGUAGAUCGGAAGAGCACACGU

Reply:
1. 24 nM
2. 28 nM
3. 18 nM

Please give Kd for each item listed below.
1. target 1 MT 5'PFS GGG 3'PFS CGA (mixed) RNA 1: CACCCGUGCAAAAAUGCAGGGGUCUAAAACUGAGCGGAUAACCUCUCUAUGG RNA 2: GGGAAUGGAUCCACAUCUACGAAUUCGGGCCAUAGAGAGGUUAUCCGCUCACGAAGAUCGGAAGAGCACACGU
2. target 1 U19A,A20C (mixed) RNA 1: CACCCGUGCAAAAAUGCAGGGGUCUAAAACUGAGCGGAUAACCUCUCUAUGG RNA 2: GGGAAUGGAUCCACAUCUACGAAUUCGUACCCAAGAGAGGUUAUCCGCUCACCGAGAUCGGAAGAGCACACGU
3. target 1 MT 5'PFS GUC 3'PFS CGA (mixed) RNA 1: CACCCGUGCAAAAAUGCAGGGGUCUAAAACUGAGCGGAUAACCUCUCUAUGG RNA 2: GGGAAUGGAUCCACAUCUACGAAUUCGUCCCAUAGAGAGGUUAUCCGCUCACGAAGAUCGGAAGAGCACACGU

Reply:
1: ~71 nM; 2: 45 nM; 3: 19.5 nM
